experimental-system: T1, human MICA002 on cells (human)
T1 chain: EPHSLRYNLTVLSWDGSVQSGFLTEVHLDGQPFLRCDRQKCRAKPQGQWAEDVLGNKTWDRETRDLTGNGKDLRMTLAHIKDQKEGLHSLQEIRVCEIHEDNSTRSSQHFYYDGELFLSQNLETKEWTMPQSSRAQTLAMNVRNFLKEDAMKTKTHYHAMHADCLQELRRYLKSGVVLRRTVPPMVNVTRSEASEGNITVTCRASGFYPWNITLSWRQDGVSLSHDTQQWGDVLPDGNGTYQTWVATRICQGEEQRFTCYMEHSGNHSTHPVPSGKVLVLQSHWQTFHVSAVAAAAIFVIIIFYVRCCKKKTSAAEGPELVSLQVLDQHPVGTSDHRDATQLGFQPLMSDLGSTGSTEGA
assay-overview: flow cytometry, CHO-MICA002 cells
As shown below, each of these binders has a reported EC50 value.
Your answer should be a plain number; it is taken to be in µg/mL.

Observe how each entry below is paired with its result.
>>> recorded_value("D2M001-001 (antibody, V domains shown, only the CDRs are tied to the name in the text; copies: 2 + 2) VH: QVQLVQSGAEVKKPGSSVKVSCKASGYTFSHHSISWVRQAPGQGLEWIGGIYPGKIKTNYAQKFQGRATLTADKSTSTAYMELSSLRSEDTAVYYCATLYGNYEAYWGQGTLVTVSS VL: DIQMTQSPSSLSASVGDRVTITCRASENIYGALNWYQQKPGKSPKLLIYGTTSLQSGVPSRFSGSGSGRDYTLTISSLQPEDFATYYCQNVLTTPPWTFGGGTKVEIK")
1.26
>>> recorded_value("1D5 (antibody, human IgG1, kappa, V domains shown, also called ID5) VH: EIQLQQSGPELVKPGASVKVSCKASGYAFTSQNIYWVKQSHGKSLEWIGYIEPYNVVPMYNPKFKGKATLTVDKSSSSAYIHLNSLTSEDSAIYYCARSGSSNFDYWGQGTTLTVSS VL: EIILTQSPTTMAASPGEKITITCSASSSISSHYLHWYQQKSGFSPKLLIYRTSNLASGVPARFSGSGSGTSYSLTIGTMEAEDVATYYCQQGSSLPLTFGAGTKVEIKR")
0.209

Here is the next item to consider.
Exercise: I'd like to know its EC50. The binder in question is D2M001-003 (antibody, V domains shown, only the CDRs are tied to the name in the text; copies: 2 + 2) VH: QVQLVQSGAEVKKPGSSVKVSCKASGYAFHDYLIEWVRQAPGQGLEWIGGINPGSGSTNYAQKFQGRATLTADKSTSTAYMELSSLRSEDTAVYYCARLDGNYVGYWGQGTLVTVSS VL: DIQMTQSPSSLSASVGDRVTITCRASGNIHNYLAWYQQKPGKSPKLLVYHAKTLQSGVPSRFSGSGSGTDYTLTISSLQPEDVATYYCQHFWSTPRTFGGGTKVEIK
Solution: 3.59
